# Measured target: T1, human G-protein-coupled receptor family C group 5 member D (GPRC5D) (human, UniProt Q9NZD1 1-345)
# T1 construct: whole, on cells; also called human GPRC5D protein
# T1 sequence (Q9NZD1 whole entry): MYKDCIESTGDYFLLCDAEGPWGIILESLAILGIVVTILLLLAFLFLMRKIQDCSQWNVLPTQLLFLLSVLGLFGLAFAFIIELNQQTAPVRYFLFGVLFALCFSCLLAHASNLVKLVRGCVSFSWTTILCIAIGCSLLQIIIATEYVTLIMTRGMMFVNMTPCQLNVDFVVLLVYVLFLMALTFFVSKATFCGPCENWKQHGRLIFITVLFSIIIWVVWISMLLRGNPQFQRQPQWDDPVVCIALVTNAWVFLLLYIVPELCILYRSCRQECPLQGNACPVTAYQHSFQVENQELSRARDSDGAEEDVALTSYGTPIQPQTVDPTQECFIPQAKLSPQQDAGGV
# Experimental details: FACS, CHO-K1/human GPRC5D
Measurement type: LogEC50
Numbers only.

Consider the worked cases shown below.
[[record]]
binder = "58-H1L1 (antibody, V domains shown, humanized 58F9G10, VH v1 x VL v1) VH: QVQLVQSGAEVKKPGASVKVSCKASGYSFTGYYIHWVRQAPGQGLEWMGYISSYNAATSFNQKFKGRVTMTRDTSTSTVYMELSSLRSEDTAVYYCARTELRGPWFAYWGQGTLVTVSS VL: DIQMTQSPSSLSASVGDRVTITCSASSSVSYMNWYQQKPGKAPKLLIYDTSKLASGVPSRFSGSGSGTDFTLTISSLQPEDFATYYCQQWSNNPLTFGQGTKLEIK"
measurement_type = "LogEC50"
measurement = 0.579

[[record]]
binder = "58-H3L1 (antibody, V domains shown, humanized 58F9G10, VH v3 x VL v1) VH: QVQLVQSGAEVKKPGASVKVSCKASGYSFTGYYIHWVKQAPGQGLEWIGYISSYNAATSFNQKFKGRVTFTVDTSTSTVYMEFSSLRSEDTAVYYCARTELRGPWFAYWGQGTLVTVSS VL: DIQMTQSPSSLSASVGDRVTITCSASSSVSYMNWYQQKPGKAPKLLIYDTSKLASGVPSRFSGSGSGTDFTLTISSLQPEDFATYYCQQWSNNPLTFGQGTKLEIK"
measurement_type = "LogEC50"
measurement = 0.612

[[record]]
binder = "34-XI (antibody, V domains shown, also called 34D3H1 (chimeric)) VH: EVHLVESGGDLVKPGGSLKLSCAASGFTFSSYGMSWVRQTPDKRLEWVATISSGGSYTYYPDSVKGRFTISRDNAKNTLNLQMSSLKSEDTAMYYCARQGGDAMDYWGQGTSVTVSS VL: DIVLTQSPATLSVTPGDSVSLSCRASQSINNNLHWYQQKSHESPRLLIKYASQSISGIPSRFSGSGSGTDFTLSINSVETEDFGMYFCQQSNSRLTFGAGTKLELK"
measurement_type = "LogEC50"
measurement = 0.578


Each binder below has a reported value. Please supply its LogEC50.
1. 6G10D9-XI (antibody, V domains shown, also called 6G10D9 (chimeric); 6G1009-X1) VH: QVQLQQSGAELARPGASVKMSCKASGYTFTTYTMHWVKQRPGQGLEWLGYINPSSGYTNYNQKFKDKATLTAGKSSSTAYMQLSSLTSEDSAVYYCASLRSRGYFDYWGQGTTLTVSS VL: DIVMTQSQTFMSTSVGDRVRITCKASQNVGTAVVWYQQKTGQSPRLLIYSASNRYTGVPDRFTGSGSGTDFTLTISNMQSEDLADFFCQQYSSYPYTFGGGTKLEIK
2. 6-H4L3 (antibody, V domains shown, humanized 6G10D9, VH v4 x VL v3) VH: QVQLVQSGAEVAKPGASVKMSCKASGYTFTTYTMHWVKQAPGQGLEWLGYINPSSGYTNYNQKFKDRVTLTADTSTSTVYMELSSLRSEDTAVYYCASLRSRGYFDYWGQGTLLTVSS VL: DIQMTQSPSFLSTSVGDRVTITCKASQNVGTAVVWYQQKPGKSPKLLIYSASNRYTGVPSRFSGSGSGTEFTLTISSMQPEDFATFFCQQYSSYPYTFGQGTKLEIK

0.472
1.42
